System: HIV
Format: cell-based
Run Parameters: EC50 in the presence of human serum (25%) versus without human serum, MT-4 cells
Method: To confirm the influence of human serum on anti-HIV activity as necessary, human serum was added and determined EC50 in this condition. […] The EC50 in the presence of human serum was calculated in the same manner as in Test Example 1 and the ratio of EC50 in the presence of human serum and EC50 in the absence of human serum was calculated as the potency shift value. […]
Test Readout: Potency shift value
The response must contain the number and no unit.

The examples below pair each entry with its known result.
| Molecule | Potency shift value |
| --- | --- |
| Cc1ccc(-c2c([C@H](OC(C)(C)C)C(=O)O)c(C)c3c4c2cc(C)n4CCN3CC2COC2)cc1 [Compound I-211] | 7.5 |
| Cc1ccc(-c2c([C@H](OC(C)(C)C)C(=O)O)c(C)c3c4c2cc(C)n4CCN3c2ncc(OCF)cn2)cc1 [Compound I-282] | 36 |
| Cc1ccc(-c2c([C@H](OC(C)(C)C)C(=O)O)c(C)c3c4c2cc(C)n4CCN3c2ncc(OCCCO)cn2)cc1 [Compound I-284] | 17 |
| COc1cnc(N2c3c(C)c([C@H](OC(C)(C)C)C(=O)O)c(-c4ccc(Cl)cc4)c4cc(C)n(c34)C3CN(C(=O)c4ccccc4)CC32)nc1 (some centres unmarked) [Compound I-322] | 15 |
| Cc1ccc(-c2c([C@H](OC(C)(C)C)C(=O)O)c(C)c3c4c2cc(C)n4CCN3c2ncc(CN(C)C)cn2)cc1 [Compound I-304] | 6.8 |

Entry under review: Cc1ccc(-c2c([C@H](OC(C)(C)C)C(=O)O)c(C)c3c4c2cc(C)n4CCN3c2ncc(N3C[C@@H](C)O[C@@H](C)C3)cn2)cc1 [Compound I-316] . Reported Potency shift value?
17

Continue with Cc1ccc(-c2c([C@H](OC(C)(C)C)C(=O)O)c(C)c3c4c2cc(C)n4CCN3c2ncc(CCN3CCCCC3)cn2)cc1 [Compound I-305]
3.6

Again, but for Cc1c([C@H](OC(C)(C)C)C(=O)O)c(-c2ccc(Cl)cc2)c2cc(C)n3c2c1N(CCN(C)C)[C@H](C)C3 [Compound I-112]
3.5

Note, next up: [2H]C([2H])([2H])Oc1cnc(N2CCn3c(C)cc4c(-c5ccc(C)cc5)c([C@H](OC(C)(C)C)C(=O)O)c(C)c2c43)nc1 [Compound I-266]
23

====

Test system: HIV
Format: cell-based
Run Parameters: EC50 in the presence of human serum (25%) versus without human serum, MT-4 cells
Test Readout: Potency shift value
Form: value (number only, do not type unit).

| Compound | Test Readout | Assay Result |
| --- | --- | --- |
| COCCN1CCn2c(C)cc3c(-c4ccc(C)cc4)c([C@H](OC(C)(C)C)C(=O)O)c(C)c1c32 | Potency shift value | 13 |
| COc1cnc(N2CCn3c(C)cc4c(-c5ccc(C)cc5)c([C@H](OC(C)(C)C)C(=O)O)c(C)c2c43)nc1 | Potency shift value | 22 |
| C=Cc1cnc(N2CCn3c(C)cc4c(-c5ccc(Cl)cc5)c([C@H](OC(C)(C)C)C(=O)O)c(C)c2c43)nc1 | Potency shift value | 20 |
| Cc1ccc(-c2c([C@H](OC(C)(C)C)C(=O)O)c(C)c3c4c2cc(C)n4C(C)CN3CCN(C)C)cc1 (single isomer, unassigned) | Potency shift value | 2.6 |
| Cc1c([C@H](OC(C)(C)C)C(=O)O)c(-c2ccc(Cl)cc2)c2cc(C)n3c2c1N(c1ncc(OCOCC[Si](C)(C)C)cn1)CC3 | Potency shift value | 12 |

Continue with the next compound.
Item under review: `CCOc1cnc(N2CCn3c(C)cc4c(-c5ccc(Cl)cc5)c([C@H](OC(C)(C)C)C(=O)O)c(C)c2c43)nc1` . Reported Potency shift value?
17

Values were extracted from patent US10494380B2.
